Assignment: determine reported human TLR4 for the given molecules.
# system tested: TLR4 (Homo sapiens, UniProt O00206+Q9Y6Y9)
# Sequence (O00206 24-839): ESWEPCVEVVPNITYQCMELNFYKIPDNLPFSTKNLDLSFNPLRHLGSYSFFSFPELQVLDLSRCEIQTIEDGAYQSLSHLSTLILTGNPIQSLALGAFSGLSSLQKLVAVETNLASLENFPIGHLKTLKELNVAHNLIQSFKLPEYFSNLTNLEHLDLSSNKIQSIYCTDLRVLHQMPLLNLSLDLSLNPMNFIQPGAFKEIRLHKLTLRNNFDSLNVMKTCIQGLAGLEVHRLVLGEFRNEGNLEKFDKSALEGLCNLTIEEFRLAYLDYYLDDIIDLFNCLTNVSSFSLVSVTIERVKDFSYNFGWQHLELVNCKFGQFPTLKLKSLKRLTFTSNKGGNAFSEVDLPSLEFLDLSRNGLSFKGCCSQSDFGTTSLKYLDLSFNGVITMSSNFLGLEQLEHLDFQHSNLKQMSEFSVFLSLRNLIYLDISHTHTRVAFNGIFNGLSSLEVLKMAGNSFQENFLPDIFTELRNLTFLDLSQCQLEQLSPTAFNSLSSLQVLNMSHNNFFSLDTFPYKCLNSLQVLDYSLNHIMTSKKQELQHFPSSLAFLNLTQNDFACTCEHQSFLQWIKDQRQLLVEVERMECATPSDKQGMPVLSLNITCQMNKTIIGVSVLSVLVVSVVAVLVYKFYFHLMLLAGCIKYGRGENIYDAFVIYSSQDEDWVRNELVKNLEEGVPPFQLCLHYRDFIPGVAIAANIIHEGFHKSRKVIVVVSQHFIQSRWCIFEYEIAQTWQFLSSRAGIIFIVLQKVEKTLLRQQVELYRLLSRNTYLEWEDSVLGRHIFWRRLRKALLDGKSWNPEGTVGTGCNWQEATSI
# Sequence (Q9Y6Y9 17-160 limits assumed): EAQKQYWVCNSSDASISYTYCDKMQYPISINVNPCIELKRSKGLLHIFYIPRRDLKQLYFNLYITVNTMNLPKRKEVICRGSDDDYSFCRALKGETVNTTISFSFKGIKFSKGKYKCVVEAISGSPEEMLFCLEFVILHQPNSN
# assay remarks: TLR4, human (Tables 1-3); further: test concentration or dose not given here
# Type: cell-based
# measurement setup: Table 2, R^2 series; Compound 1 = 100
Numbers only.

molecule: O=C(CSc1nc2c([nH]c3ccccc32)c(=O)n1-c1ccccc1)NC1CCCC1
human TLR4: 23
--
molecule: CCC(C)CCNC(=O)CSc1nc2c([nH]c3ccccc32)c(=O)n1-c1ccccc1 (stereo not shown)
human TLR4: 17
--
molecule: O=C(CSc1nc2c([nH]c3ccccc32)c(=O)n1-c1ccccc1)Nc1ccccc1
human TLR4: 31

Please turn your attention to the following entry.
Quick check: human TLR4 of "O=C(CSc1nc2c([nH]c3ccccc32)c(=O)n1-c1ccccc1)NC1CCCCCC1" ?
100
